Value source: paper PMC7155755

- TGT: T1, human 14-3-3 isoform ζ (recombinant, MBP tag removed) (human, UniProt P63104 1-245)
- T1 construct: 14-3-3 zeta, human; Expressed from pMAL2CX plasmids; also called 14-3-3ζ; source: E. coli BL21DE3, purified (maltose-agarose, Factor Xa, anion exchange)
- T1 sequence (looked up): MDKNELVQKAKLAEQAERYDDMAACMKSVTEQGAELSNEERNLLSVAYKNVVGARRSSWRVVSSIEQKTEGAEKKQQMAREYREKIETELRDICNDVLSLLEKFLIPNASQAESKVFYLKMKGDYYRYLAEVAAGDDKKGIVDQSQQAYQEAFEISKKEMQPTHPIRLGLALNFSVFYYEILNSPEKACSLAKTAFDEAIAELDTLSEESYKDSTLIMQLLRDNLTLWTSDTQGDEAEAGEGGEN
- ASSAY_PROTOCOL: fluorescence polarisation; direct binding; dilution series of 14-3-3 isoform (at least 5 μM down to picomolar) mixed with 1 nM fluorescein-labelled peptide; 20 mM MOPS pH 7, 150 mM NaCl, 0.005% CHAPS; 384-well plates
- ASSAY_CONTEXT: both partners purified
Square brackets hold non-standard residues; d marks the D form. Ends that are not written are not given here. fluorescein = N-terminal fluorescein label; pS = N[C@@H](COP(=O)(O)O)C(=O)O
Listed next: entries and their corresponding Kd.

# BINDER, Kd
measured = [
    ("fluorescein-RCSPNLRRHSN[pS]LGPIFDH (LRRK2-derived peptide with the possible pathogenic mutation Q930R, phosphorylated at S935; source: synthetic peptide (Peps4LS GmbH)) [Q930R/pS935]", "23.9 nM"),
    ("fluorescein-KKSN[pS]ISVGEFYRDAVLQRCSPNLQRHSN[pS]LGPIF (LRRK2-derived 35-mer covering S910 and S935, phosphorylated at both; source: synthetic peptide (Peps4LS GmbH)) [pS910/pS935]", "4.8 nM"),
]
